# experimental_details: Oral bioavailability in male Beagle dog measured up to 24 hrs by LC-MS/MS analysis
# Type: ADME, organism-based, Canis lupus familiaris
# condition: in vivo
value_type: bioavailability (%)
One number for each entry, in %.

Some solved entries appear below for comparison.
C=CC(=O)N1C[C@H](C)N(c2nc(=O)n3c4nc(c(F)cc24)-c2c(F)cccc2OCC(F)(F)CCc2ccnc(C(C)C)c2-3)C[C@H]1C 59
C=CC(=O)N1C[C@H](C)N(c2nc(=O)n3c4nc(c(Cl)cc24)-c2c(F)ccc(F)c2OCCOc2ccnc(C(C)C)c2-3)C[C@H]1C 58
C=CC(=O)N1C[C@H](C)N(c2nc(=O)n3c4nc(c(F)cc24)-c2c(F)cc(F)cc2OCC(F)(F)CCc2ccnc(C(C)C)c2-3)C[C@H]1C 76

Below are 2 compounds. Give each one its bioavailability.
1. C=CC(=O)N1C[C@H](C)N(c2nc(=O)n3c4nc(c(F)cc24)-c2c(F)ccc(F)c2OCCOc2ccnc(C(C)C)c2-3)C[C@H]1C
2. C=CC(=O)N1C[C@H](C)N(c2nc(=O)n3c4nc(c(F)cc24)-c2c(ccc(F)c2F)OCC(F)(F)CCc2ccnc(C(C)C)c2-3)C[C@H]1C

Result block:
1: 67; 2: 80

---

# experimental_details: MRT in male Beagle dog measured up to 24 hrs by LC-MS/MS analysis
# Type: ADME, Canis lupus familiaris
# condition: in vivo
Provide the recorded MRT for the entries that follow.
Please provide the amount together with its unit, number first.

Some solved entries appear below for comparison.
C=CC(=O)N1C[C@H](C)N(c2nc(=O)n3c4nc(c(F)cc24)-c2c(F)ccc(F)c2OCCOc2ccnc(C(C)C)c2-3)C[C@H]1C 0.8 h
C=CC(=O)N1C[C@H](C)N(c2nc(=O)n3c4nc(c(F)cc24)-c2c(F)cccc2OCC(F)(F)CCc2ccnc(C(C)C)c2-3)C[C@H]1C 2.2 h
C=CC(=O)N1C[C@H](C)N(c2nc(=O)n3c4nc(c(F)cc24)-c2c(ccc(F)c2F)OCC(F)(F)CCc2ccnc(C(C)C)c2-3)C[C@H]1C 3.3 h
C=CC(=O)N1C[C@H](C)N(c2nc(=O)n3c4nc(c(F)cc24)-c2c(F)cc(F)cc2OCC(F)(F)CCc2ccnc(C(C)C)c2-3)C[C@H]1C 2.5 h

In the following, a different compound is considered.
The compound C=CC(=O)N1C[C@H](C)N(c2nc(=O)n3c4nc(c(Cl)cc24)-c2c(F)ccc(F)c2OCCOc2ccnc(C(C)C)c2-3)C[C@H]1C showed MRT equal to 1.1 h

---

Provide the recorded CL free for the entries that follow.
# experimental_details: Unbound plasma clearance in fasted Wistar-Han rat measured up to 24 hrs by LC-MS/MS analysis
# Format: ADME
One number for each entry, in mL/min/kg.

Some solved entries appear below for comparison.
C=CC(=O)N1C[C@H](C)N(c2nc(=O)n3c4nc(c(F)cc24)-c2c(F)cc(F)cc2OCCOc2ccnc(C(C)C)c2-3)C[C@H]1C 407
C=CC(=O)N1C[C@H](C)N(c2nc(=O)n3c4nc(c(F)cc24)-c2c(F)ccc(F)c2OCCOc2ccnc(C(C)C)c2-3)C[C@H]1C 126
C=CC(=O)N1C[C@H](C)N(c2nc(=O)n3c4nc(c(F)cc24)-c2c(F)cccc2OCC(F)(F)CCc2ccnc(C(C)C)c2-3)C[C@H]1C 113

Below are 4 compounds. Give each one its CL free.
1. C=CC(=O)N1C[C@H](C)N(c2nc(=O)n3c4nc(c(C)cc24)-c2c(F)ccc(F)c2OCCOc2ccnc(C(C)C)c2-3)C[C@H]1C
2. C=CC(=O)N1C[C@H](C)N(c2nc(=O)n3c4nc(c(Cl)cc24)-c2c(F)ccc(F)c2OCCOc2ccnc(C(C)C)c2-3)C[C@H]1C
3. C=CC(=O)N1C[C@H](C)N(c2nc(=O)n3c4nc(c(F)cc24)-c2c(ccc(F)c2F)OCC(F)(F)CCc2ccnc(C(C)C)c2-3)C[C@H]1C
4. C=CC(=O)N1C[C@H](C)N(c2nc(=O)n3c4nc(c(F)cc24)-c2c(F)cc(F)cc2OCC(F)(F)CCc2ccnc(C(C)C)c2-3)C[C@H]1C

Result block:
148
606
213
270

Data origin: ChEMBL document CHEMBL6078617
